measured.on: HMG-CoA reductase (Homo sapiens)
Sequence (P04035 426-888 limits assumed): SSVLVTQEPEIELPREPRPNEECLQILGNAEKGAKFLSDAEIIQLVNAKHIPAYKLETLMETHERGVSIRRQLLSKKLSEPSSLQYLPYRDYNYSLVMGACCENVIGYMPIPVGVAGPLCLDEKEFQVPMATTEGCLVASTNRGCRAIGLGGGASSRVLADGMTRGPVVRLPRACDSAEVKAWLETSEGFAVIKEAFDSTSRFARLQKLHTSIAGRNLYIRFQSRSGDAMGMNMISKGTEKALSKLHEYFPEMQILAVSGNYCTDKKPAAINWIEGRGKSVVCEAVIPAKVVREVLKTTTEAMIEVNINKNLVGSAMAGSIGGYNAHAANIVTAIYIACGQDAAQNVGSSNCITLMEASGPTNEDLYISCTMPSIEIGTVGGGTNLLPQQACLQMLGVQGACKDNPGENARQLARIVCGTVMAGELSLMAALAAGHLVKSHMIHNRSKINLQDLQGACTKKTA
pIC50: −log10 of the molar value.
measured.parameter: pIC50

1. CC(C)=CCC/C(C)=C/CC/C(=C/Cc1cc(O)ccc1O)C(=O)O [S34]
2. COc1ccc([C@@H]2C=C(CC/C=C(\C)CCC=C(C)C)C(=O)O2)cc1 [S25]
Compare 1 and 2 by numeric pIC50 and name the larger one. Please respond with the label that marks your chosen entry.
2

* * *

pIC50: −log10 of the molar value.
Below are molecules with their pIC50 as measured on protein tyrosine phosphatase 1B (PTP-1B) (Homo sapiens).
Sequence (P18031 whole entry, species assumed): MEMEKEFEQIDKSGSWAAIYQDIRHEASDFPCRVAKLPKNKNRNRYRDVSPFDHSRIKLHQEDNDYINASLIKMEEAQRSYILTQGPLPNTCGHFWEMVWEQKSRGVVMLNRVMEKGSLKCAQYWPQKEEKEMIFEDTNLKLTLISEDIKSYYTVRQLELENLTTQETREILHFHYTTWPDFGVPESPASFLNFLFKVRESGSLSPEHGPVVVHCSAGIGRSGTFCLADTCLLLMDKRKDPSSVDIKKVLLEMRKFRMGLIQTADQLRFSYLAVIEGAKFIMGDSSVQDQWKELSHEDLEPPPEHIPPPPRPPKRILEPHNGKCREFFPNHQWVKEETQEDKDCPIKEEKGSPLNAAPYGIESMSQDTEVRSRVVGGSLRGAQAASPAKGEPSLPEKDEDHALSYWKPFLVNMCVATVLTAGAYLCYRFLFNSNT
measured.parameter: pIC50

Example entries and their recorded answers appear below.
# molecule, assay.value
rows = [
    ("CC(C)=CCC/C(C)=C/CCC1=C[C@@H](c2cc(O)ccc2O)OC1=O", 5.02),
    ("C/C(=C\\CC/C(C)=C/CC/C(=C/Cc1cc(O)ccc1O)C(=O)O)CO", 5.35),
    ("C/C(C=O)=C\\CC/C(C)=C/CC/C(=C/Cc1cc(O)ccc1O)C(=O)O", 4.91),
]

I. CC(C)=CCC/C(C)=C/CCC1=C[C@H](c2ccccc2[N+](=O)[O-])OC1=O
II. CC(C)=CCC/C(C)=C/CCC1=C[C@H](c2cc(F)c(F)c(F)c2)OC1=O
III. CCc1ccc([C@H]2C=C(CC/C=C(\C)CCC=C(C)C)C(=O)O2)cc1
Order the records, beginning with the lowest pIC50 and ending with the highest. Answer by listing the labels in the requested order.
II, III, I
(II: 4.60, III: 4.81, I: 5.28)

* * *

measured.on: HMG-CoA reductase (Homo sapiens, UniProt P04035)
Sequence (P04035 426-888 limits assumed): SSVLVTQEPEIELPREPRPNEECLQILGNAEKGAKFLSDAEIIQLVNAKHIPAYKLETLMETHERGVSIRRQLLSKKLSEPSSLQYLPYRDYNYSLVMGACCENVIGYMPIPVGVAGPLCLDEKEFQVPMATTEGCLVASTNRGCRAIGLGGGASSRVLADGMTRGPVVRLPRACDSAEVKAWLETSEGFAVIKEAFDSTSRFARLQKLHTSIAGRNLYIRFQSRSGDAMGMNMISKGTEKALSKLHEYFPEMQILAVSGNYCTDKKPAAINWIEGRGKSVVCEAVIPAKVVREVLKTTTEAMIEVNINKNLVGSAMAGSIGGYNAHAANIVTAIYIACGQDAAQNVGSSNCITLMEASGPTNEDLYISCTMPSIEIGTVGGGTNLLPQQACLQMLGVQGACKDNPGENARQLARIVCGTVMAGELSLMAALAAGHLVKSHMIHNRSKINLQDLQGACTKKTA
pIC50: −log10 of the molar value.
measured.parameter: pIC50

# molecule, assay.value
records = [
    ("C/C(C=O)=C\\CC/C(C)=C/CC/C(=C/Cc1cc(O)ccc1O)C(=O)O [S35]", 4.68),
]

I. CC(C)=CCC/C(C)=C/CCC1=C[C@H](c2ccc(C)cc2)OC1=O [S6]
II. CC(C)=CCCC1=C[C@H](c2cc(O)ccc2O)OC1=O [S37]
Given the two records I and II , choose the one whose pIC50 value is lower. Which one? Tell me its label.
II
